Test system: MON (INI1−/−) rhabdoid tumor cells
ASSAY_PROTOCOL: MTS survival assay of rhabdoid tumor cells
Assay type: cell-based
CONDITIONS_USED: MON cells, three days, compounds in FIG. 1A-1D; concentration of drug required to kill 50% of cells; read-out: IC50
MEASUREMENT_KIND: pIC50
Scale explanation: pIC50 corresponds to minus log10 of a concentration expressed in moles per litre.

Query (molecule): CC1=C(/C=C/C(C)=C/C=C/C(C)=C/C(=O)Nc2ccc(O)cc2)C(C)(C)CCC1 [Compound 4-HPR, N-(4-hydroxyphenyl)retinamide, reference compound] ; field requested: pIC50
4.72

* * *

System: MON cells
ASSAY_PROTOCOL: FACS analysis of cell cycle and sub-G1 (apoptosis)
Type: cell-based
CONDITIONS_USED: 2 days, 10 μM, Table 5
MEASUREMENT_KIND: SubG1 (percentage of MON cells at sub-G1) (%)
Numbers only here, please. The scale is %.

Below are worked cases with known answers.
- COMPOUND: "CC1=C(/C=C/C(C)=C/C=C/C(C)=C/C(=O)Nc2ccc(O)cc2O)C(C)(C)CCC1"
  RESULT_NUMBER: 43.53
- COMPOUND: "CC1=C(/C=C/C(C)=C/C=C/C(C)=C/C(=O)O)C(C)(C)CCC1 [ATRA, All-trans retinoic acid, reference compound]"
  RESULT_NUMBER: 9.27
- COMPOUND: "CC1=C(/C=C/C(C)=C/C=C/C(C)=C/C(=O)Nc2ccc(O)c(F)c2)C(C)(C)CCC1"
  RESULT_NUMBER: 50.79
- COMPOUND: "CC1=C(/C=C/C(C)=C/C=C/C(C)=C/C(=O)Nc2ccc(F)cc2)C(C)(C)CCC1"
  RESULT_NUMBER: 9.44

Consider the compound shown here: CC1=C(/C=C/C(C)=C/C=C/C(C)=C/C(=O)Nc2ccc(O)c(I)c2)C(C)(C)CCC1 What is its recorded SubG1 (percentage of MON cells at sub-G1)?
34.21

How about this compound: CC1=C(/C=C/C(C)=C/C=C/C(C)=C/C(=O)Nc2ccc(O)cc2)C(C)(C)CCC1 [Compound 4-HPR, N-(4-hydroxyphenyl)retinamide, reference compound]
73.98

* * *

Test system: MON (INI1−/−) rhabdoid tumor cells
ASSAY_PROTOCOL: MTS survival assay of rhabdoid tumor cells
Assay type: cell-based
CONDITIONS_USED: MON rhabdoid cells, survival assay, values in text; read-out: IC50
pIC50: −log10 of the molar value.
MEASUREMENT_KIND: pIC50

- MOLECULE: "CC1=C(/C=C/C(C)=C/C=C/C(C)=C/C(=O)Nc2ccc(O)cc2)C(C)(C)CCC1 [Compound 4-HPR, N-(4-hydroxyphenyl)retinamide, reference compound]"
  pIC50: "~4.82"

What pIC50 value was documented for this molecule, CC1=C(/C=C/C(C)=C/C=C/C(C)=C/C(=O)Nc2ccc(O)c(I)c2)C(C)(C)CCC1 ?
~5.52

And the next one, CC1=C(/C=C/C(C)=C/C=C/C(C)=C/C(=O)Nc2ccc(F)cc2)C(C)(C)CCC1 ?
≤ 3.82

Now consider CC1=C(/C=C/C(C)=C/C=C/C(C)=C/C(=O)O)C(C)(C)CCC1 [ATRA, All-trans retinoic acid, reference compound] .
4.00

Same question, CC1=C(/C=C/C(C)=C/C=C/C(C)=C/C(=O)Nc2ccc(Cl)cc2)C(C)(C)CCC1 this time
≤ 3.82

Query CC1=C(/C=C/C(C)=C/C=C/C(C)=C/C(=O)Nc2ccc(O)c(Cl)c2)C(C)(C)CCC1 next
5.00

Quick one: CCC1=C(C)/C(=C/c2ccc(C(=O)O)cc2)CCC1(C)C
< 4.30

Ok, now CC1=C(/C=C/C(C)=C/C=C/C(C)=C/C(=O)Nc2ccc(O)cc2O)C(C)(C)CCC1
5.10
